system: Enterobacter cloacae
Positions of bridges follow the written chain, without caps; N, C: chain ends. Non-standard residues stand in square brackets, D forms with d. Residues, ends and D or L forms follow the SMILES beside them. *: point of attachment. X20 = Cc1cc(C(=O)*)ccc1C(F)(F)F; X16 = O=C(c1cc(F)c(F)c(F)c1)*; X6 = O=C(c1ccc(F)c(Cl)c1)*; Heptanoyl = CCCCCCC(=O)*; Octanoyl = CCCCCCCC(=O)*; Dab = NCC[C@H](N)C(=O)O; Abu = CC[C@H](N)C(=O)O; Dap = NC[C@H](N)C(=O)O
reportedMetric: Minimum inhibitory concentration, Ec FADDI-EC003 (µg/mL)

[[record]]
compound = "CCCCCCCC(=O)N[C@@H](CCN)C(=O)N[C@H](C(=O)N[C@@H](CN)C(=O)N[C@H]1CCNC(=O)[C@H]([C@@H](C)O)NC(=O)[C@H](CN)NC(=O)[C@H](CCN)NC(=O)[C@H]([C@@H](C)O)NC(=O)[C@@H](CC(C)C)NC(=O)[C@H](CCN)NC1=O)[C@@H](C)O [Compound 50] (Octanoyl-[Dab]T[Dap][Dab][Dab][dL]T[Dab][Dap]T; lactam 4-C)"
target = "Enterobacter cloacae"
outputunit = "µg/mL"
limitsign = "<"
measvalue = 0.125

[[record]]
compound = "CC[C@@H]1NC(=O)[C@@H](CC(C)C)NC(=O)[C@H](CCN)NC(=O)[C@@H](NC(=O)[C@H](CN)NC(=O)[C@@H](NC(=O)[C@H](CCN)NC(=O)c2ccc(F)c(Cl)c2)[C@@H](C)O)CCNC(=O)[C@H]([C@@H](C)O)NC(=O)[C@H](CCN)NC(=O)[C@H](CCN)NC1=O [Compound 110] (X6-[Dab]T[Dap][Dab][Dab][dL][Abu][Dab][Dab]T; lactam 4-C)"
target = "Enterobacter cloacae"
outputunit = "µg/mL"
limitsign = "="
measvalue = 1

[[record]]
compound = "CC[C@@H]1NC(=O)[C@@H](CC(C)C)NC(=O)[C@H](CCN)NC(=O)[C@@H](NC(=O)[C@H](CN)NC(=O)[C@@H](NC(=O)[C@H](CCN)NC(=O)c2ccc(C(F)(F)F)c(C)c2)[C@@H](C)O)CCNC(=O)[C@H]([C@@H](C)O)NC(=O)[C@H](CCN)NC(=O)[C@H](CCN)NC1=O [Compound 119] (X20-[Dab]T[Dap][Dab][Dab][dL][Abu][Dab][Dab]T; lactam 4-C)"
target = "Enterobacter cloacae"
outputunit = "µg/mL"
limitsign = "<"
measvalue = 0.125

[[record]]
compound = "CC[C@@H]1NC(=O)[C@@H](CC(C)C)NC(=O)[C@H](CCN)NC(=O)[C@@H](NC(=O)[C@H](CN)NC(=O)[C@@H](NC(=O)[C@H](CCN)NC(=O)c2cc(F)c(F)c(F)c2)[C@@H](C)O)CCNC(=O)[C@H]([C@@H](C)O)NC(=O)[C@H](CCN)NC(=O)[C@H](CCN)NC1=O [Compound 133] (X16-[Dab]T[Dap][Dab][Dab][dL][Abu][Dab][Dab]T; lactam 4-C; N-terminus assumed)"
target = "Enterobacter cloacae"
outputunit = "µg/mL"
limitsign = "="
measvalue = 0.25

[[record]]
compound = "CCCCCCC(=O)N[C@@H](CCN)C(=O)N[C@H](C(=O)N[C@@H](CN)C(=O)N[C@H]1CCNC(=O)[C@H]([C@@H](C)O)NC(=O)[C@H](CCN)NC(=O)[C@H](CCN)NC(=O)[C@H](CC)NC(=O)[C@@H](Cc2ccccc2)NC(=O)[C@H](CCN)NC1=O)[C@@H](C)O [Compound 131] (Heptanoyl-[Dab]T[Dap][Dab][Dab][dF][Abu][Dab][Dab]T; lactam 4-C)"
target = "Enterobacter cloacae"
outputunit = "µg/mL"
limitsign = "<"
measvalue = 0.125

